Molecular target: PTHR1 (Homo sapiens, UniProt Q03431)
Sequence (Q03431 27-593): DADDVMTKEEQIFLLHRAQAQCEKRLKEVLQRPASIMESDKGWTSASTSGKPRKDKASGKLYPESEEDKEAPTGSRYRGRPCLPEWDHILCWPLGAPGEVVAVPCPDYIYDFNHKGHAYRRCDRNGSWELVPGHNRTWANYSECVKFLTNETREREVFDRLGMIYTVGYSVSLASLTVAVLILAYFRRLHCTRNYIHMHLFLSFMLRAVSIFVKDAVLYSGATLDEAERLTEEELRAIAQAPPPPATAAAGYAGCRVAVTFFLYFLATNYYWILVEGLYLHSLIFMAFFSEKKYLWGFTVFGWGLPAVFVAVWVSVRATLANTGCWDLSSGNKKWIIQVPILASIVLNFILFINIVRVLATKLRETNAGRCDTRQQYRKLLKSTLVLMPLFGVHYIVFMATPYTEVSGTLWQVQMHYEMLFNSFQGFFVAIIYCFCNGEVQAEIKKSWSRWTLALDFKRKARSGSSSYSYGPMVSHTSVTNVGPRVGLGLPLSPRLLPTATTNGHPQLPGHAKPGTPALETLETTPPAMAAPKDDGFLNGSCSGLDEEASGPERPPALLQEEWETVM
Assay: β-arrestin2 recruitment BRET assay in transfected HEK293T cells
Format: cell-based
Set-up: Flag (N); Life Technologies Corporation, CA (arrestin cDNA); host or cells: HEK293T (CRL-3216, ATCC)
Details: β-arrestin2 recruitment, fitted curve slope; replicate plates
Where no end group is shown, it is not given here.
RECORDED ENDPOINT: −log10Slope
Answer with the value's number alone.

Take a look at these entries with their results.
* AVAEIQLMHQRAKWEIQEIGIKITLDLLQTLK [Peptide R2-41] | −4.333
* GIAVITLMVLRALLELQEIGRKITLELLKEYI [Peptide R2-51] | −5.93
* AVAEIQLMHQRAKWELLEELLKILLELLKEYI [Peptide R2-38] | −4.789
* SVMMIQVMHDLAKIRAEYELREMLLRLLEEIF [Peptide R2-8] | 4.445
* GIAVITLMLLRAYLELLEELVKILHELLRRYH [Peptide R2-52] | −0.9875
* LMHNLGKHLNSMERVEWLRKKLQDVHNFVA [PTH 7-36 antago, reference compound] | −2.649

If you can, please state the reported −log10Slope value of GIAVITLMDLRAYLRAEYELREMLLRLLEEIF [Peptide R2-13] .
−3.619

If you can, please state the reported −log10Slope value of GVAELQLMHDLAKIRAEYELREMLLRLLEEIF [Peptide R2-1] .
−1.954

If you can, please state the reported −log10Slope value of AVAEIQLMHQRAKWGLDLELAVKLQEILKDVL [Peptide R2-28] .
−3.381

###

// −log10Slope lookup, one value per entry
Target: PTHR1 (Homo sapiens, UniProt Q03431)
Assay: cAMP accumulation assay (HTRF) in CHO-K1/Ga15/PTHR1 cells
Assay type: cell-based
Parameters: host or cells: CHO-K1 (recombinant line CHO-K1/Ga15/PTHR1)
Conditions: cAMP accumulation, fitted curve slope; replicate plates
Where no end group is shown, it is not given here.
Answer with the value's number alone.

Take a look at these entries with their results.
• AVAEIQLMHQRAKWGLELELKEKLRKILEDVY [Peptide R2-26] = −14.6415
• AVAEIQLMHQRAKWEIQEIGIKITLELLKEYI [Peptide R2-37] = −5.899
• AVAEIQLMHQRAKWLEELKLKDDLRKILEDVY [Peptide R2-30] = −18.1852
• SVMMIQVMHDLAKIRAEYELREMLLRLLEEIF [Peptide R2-8] = −24.9299

If you can, please state the reported −log10Slope value of AVAEIQLMHQRAKWKLELELKVKLLEILKDVY [Peptide R2-25] .
−10.1961

If you can, please state the reported −log10Slope value of LILVEQLMDLRAYLRAEYELREMLLRLLEEIF [Peptide R2-16] .
−8.301

If you can, please state the reported −log10Slope value of PIPVKDIMDLRAYLRAEYELREMLLRLLEEIF [Peptide R2-19] .
−5.2427

If you can, please state the reported −log10Slope value of LILVKKIIDLRAYLRAEYELREMLLRLLEEIF [Peptide R2-21] .
−8.121

If you can, please state the reported −log10Slope value of AVAEIQLMHQRAKWKLDLELAVSLRKILEDVY [Peptide R2-27] .
−4.343

If you can, please state the reported −log10Slope value of AVAEIQLMHQRAKWKLELELKEKIRKLLEDLL [Peptide R2-29] .
−16.1973

If you can, please state the reported −log10Slope value of SIIGEQLMLLRALLRAEYELREMLLRLLEEIF [Peptide R2-18] .
−1.186

If you can, please state the reported −log10Slope value of AVAEIQLMHQRAKWGLDLELAVKLQEILKDVL [Peptide R2-28] .
−5.52

If you can, please state the reported −log10Slope value of AVAEIQLMHQRAKWAIQEIGIKITRELLERYL [Peptide R2-42] .
13.11
